measurement protocol: in vivo
experimental conditions: male, beagle, dog, in vivo, po, 6 mg/kg, AUCt
assay endpoint: AUC(0-t)

The compound identified as C[C@@H](c1ncncc1F)[C@](O)(Cn1cncn1)c1ccc(F)cc1F registered its AUC(0-t) at 53900 ng·h/mL

* * *

measurement protocol: in vivo
experimental conditions: male, dog, in vivo, 6 mg/kg, beagle dog, fasting, single 6 mg/kg P.O; individual animals; read-out: Blood voriconazole concentration, Time 12 hr
assay endpoint: concentration at 12 h (ng/mL)
Output spec: scalar in ng/mL, unitless text.

The compound identified as C[C@@H](c1ncncc1F)[C@](O)(Cn1cncn1)c1ccc(F)cc1F [Voriconazole] registered its concentration at 12 h at 2160
